test-system: T1, deglycosylated V domain of human CD33 (human, UniProt P20138 18-139, limits assumed, N-glycans removed by PNGase)
T1 construct: V domain deglycosylated by PNGase before testing; also called deglycosylated V CD33
experiment-summary: SPR, Fab captured, 37C;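 also: biacore 8K surface plasmon resonance with Fabs held on an amine-coupled anti-Fab antibody surface, soluble monomeric CD33 domain injected as analyte, double-referenced 1:1 binding fit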

# binder, kon / M⁻¹ s⁻¹
measured = [
    ("ADI-11776 Fab (Fab, V domains shown, Fab fragment; also called Ab3; H76) VH: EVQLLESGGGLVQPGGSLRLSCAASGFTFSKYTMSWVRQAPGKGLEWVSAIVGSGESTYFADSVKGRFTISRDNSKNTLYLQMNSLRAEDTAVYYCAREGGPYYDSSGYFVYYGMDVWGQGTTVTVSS VL: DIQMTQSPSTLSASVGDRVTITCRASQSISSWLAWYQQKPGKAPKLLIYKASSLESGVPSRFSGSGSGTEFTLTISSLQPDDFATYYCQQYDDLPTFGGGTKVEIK", "4.85e+06"),
    ("ADI-11809 Fab (Fab, V domains shown, Fab fragment; also called Ab6) VH: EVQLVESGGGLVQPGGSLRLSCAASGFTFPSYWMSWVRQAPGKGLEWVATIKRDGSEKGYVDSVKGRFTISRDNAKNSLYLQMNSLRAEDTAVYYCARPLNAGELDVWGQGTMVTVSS VL: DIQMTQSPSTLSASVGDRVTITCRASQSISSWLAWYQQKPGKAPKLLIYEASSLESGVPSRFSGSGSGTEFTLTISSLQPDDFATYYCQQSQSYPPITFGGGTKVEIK", "3.4e+06"),
    ("ADI-11828 Fab (Fab, V domains shown, Fab fragment; also called Ab27) VH: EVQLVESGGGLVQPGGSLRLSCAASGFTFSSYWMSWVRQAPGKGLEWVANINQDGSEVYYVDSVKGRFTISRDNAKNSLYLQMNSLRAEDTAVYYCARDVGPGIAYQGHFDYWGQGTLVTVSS VL: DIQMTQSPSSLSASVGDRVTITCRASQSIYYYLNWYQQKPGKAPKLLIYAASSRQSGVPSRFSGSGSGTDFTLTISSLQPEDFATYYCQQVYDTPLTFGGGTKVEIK", "3.59e+06"),
    ("ADI-10159 Fab (Fab, V domains shown, Fab fragment; also called Ab1; G59) VH: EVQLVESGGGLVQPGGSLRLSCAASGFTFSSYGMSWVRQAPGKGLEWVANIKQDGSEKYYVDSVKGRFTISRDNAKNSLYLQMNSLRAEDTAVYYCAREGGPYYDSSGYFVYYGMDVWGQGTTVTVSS VL: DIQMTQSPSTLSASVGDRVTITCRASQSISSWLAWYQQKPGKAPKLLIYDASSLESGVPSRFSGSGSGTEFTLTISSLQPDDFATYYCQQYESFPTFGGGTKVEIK", 978000),
    ("ADI-11819 Fab (Fab, V domains shown, Fab fragment; also called Ab8) VH: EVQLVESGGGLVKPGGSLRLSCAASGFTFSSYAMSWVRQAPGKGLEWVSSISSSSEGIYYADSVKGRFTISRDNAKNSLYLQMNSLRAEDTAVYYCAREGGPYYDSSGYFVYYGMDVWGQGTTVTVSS VL: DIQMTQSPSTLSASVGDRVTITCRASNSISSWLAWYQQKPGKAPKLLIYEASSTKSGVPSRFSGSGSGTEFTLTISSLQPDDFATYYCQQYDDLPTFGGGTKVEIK", "9.15e+06"),
    ("ADI-11835 Fab (Fab, V domains shown, Fab fragment; also called Ab10; I35) VH: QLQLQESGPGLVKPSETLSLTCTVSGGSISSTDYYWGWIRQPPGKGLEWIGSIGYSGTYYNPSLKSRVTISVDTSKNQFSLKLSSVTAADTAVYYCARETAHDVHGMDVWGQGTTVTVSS VL: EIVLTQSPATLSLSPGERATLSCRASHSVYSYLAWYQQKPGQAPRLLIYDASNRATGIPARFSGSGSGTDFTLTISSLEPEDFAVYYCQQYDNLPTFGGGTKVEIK", "7.94e+06"),
    ("ADI-10157 Fab (Fab, V domains shown, Fab fragment; also called Ab13) VH: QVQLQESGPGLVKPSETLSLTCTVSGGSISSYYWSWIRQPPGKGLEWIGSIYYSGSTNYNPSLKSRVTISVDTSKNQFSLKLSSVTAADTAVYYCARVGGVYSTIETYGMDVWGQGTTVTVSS VL: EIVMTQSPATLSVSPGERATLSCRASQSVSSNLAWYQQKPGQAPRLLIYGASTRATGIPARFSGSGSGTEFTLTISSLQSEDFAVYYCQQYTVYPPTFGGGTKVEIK", 411000),
    ("ADI-10158 Fab (Fab, V domains shown, Fab fragment; also called Ab14) VH: QVQLQQWGAGLLKPSETLSLTCAVYGGSFSGYYWSWIRQPPGKGLEWIGEIDHSGSTNYNPSLKSRVTISVDTSKNQFSLKLSSVTAADTAVYYCARQGIHGLRYFDLWGRGTLVTVSS VL: EIVMTQSPATLSLSPGERATLSCRASQSVSSYLAWYQQKPGQAPRLLIYDASNRATGIPARFSGSGSGTDFTLTISSLEPEDFAVYYCQQDHNFPYTFGGGTKVEIK", "2.63e+06"),
]
